Each record here notes measured pIC50.
system: IL-17 production by CD4 T cells; experiment: Human Th17 assay (IL-17 production by CD4 T cells under Th17 differentiation conditions); type: cell-based; settings: Homo sapiens, CD4+ T, 72 h, IL-17 in supernatant after 3 days
Kindly note that pIC50 refers to -log10 of the concentration in mol/L and answer with the value alone.

Solved cases (2 shown):
>  <compound>
COc1ccc(C(O)(c2ccc3nc(Cl)c(-c4ccccc4)c(Cl)c3c2)c2cc(C)no2)cn1 (stereo not shown)

>  <quantitative result>
6.68

$$$$
>  <compound>
Cn1cncc1C(O)(c1ccc(Cl)cc1)c1ccc2nc(Cl)c(-c3ccccc3)c(Cl)c2c1 (racemic) [Example 119a]

>  <quantitative result>
5.74

$$$$

Now look at this entry.
Please give the measured pIC50 for this compound: COCCN(C)c1nc2ccc(C(O)(c3ccncc3)c3cncn3C)cc2c(Cl)c1-c1ccccc1 (stereo not shown)
7.20

---

test system: IL-17 production by CD4 T cells; experiment: Human Th17 assay (IL-17 production by CD4 T cells under Th17 differentiation conditions); assay type: cell-based; conditions: Homo sapiens, CD4+ T, 72 h, IL-17 in supernatant after 3 days
parameter: pIC50
FYI, pIC50 means -log10 of a concentration in mol per litre.

>  <compound>
CN(C)c1nc2ccc(C(O)(c3cccnc3)c3cccc(Cl)c3)cc2c(Cl)c1-c1ccccc1 (stereo not shown)

>  <parameter>
pIC50

>  <quantitative result>
6.70

$$$$
>  <compound>
Cn1cncc1C(O)(c1cccnc1)c1ccc2nc(Cl)c(-c3ccccc3)c(Cl)c2c1 (stereo not shown)

>  <parameter>
pIC50

>  <quantitative result>
6.39

$$$$
>  <compound>
CC(C)Oc1nc2ccc(C(O)(c3ccncc3)c3cncn3C)cc2c(N(C)C)c1-c1ccccc1 (stereo not shown)

>  <parameter>
pIC50

>  <quantitative result>
6.10

$$$$

What value of pIC50 has been reported for the following compound? Cn1c(C(O)(c2ccc(Cl)cc2)c2ccc3nc(Cl)c(-c4ccccc4)c(Cl)c3c2)cnc1Cl (stereo not shown)
5.92

---

Below, each of the compounds is paired with its reported pIC50 value.
test system: IL-17 production by CD4 T cells; experiment: Human Th17 assay (IL-17 production by CD4 T cells under Th17 differentiation conditions); format: cell-based; conditions: Homo sapiens, CD4+ T, 72 h, IL-17 in supernatant after 3 days
Remember the convention: pIC50 equals -log10 of concentration in molar.

These recorded examples may help you get a feel for the data.
>  <compound>
COc1nc2c(C)cc(C(O)(c3ccc(F)cc3)c3cncn3C)cc2c(Cl)c1-c1cccc(F)c1 (single isomer, unassigned) [Example 178c]

>  <pIC50>
7.35

$$$$
>  <compound>
OC(c1ccc(F)cc1)(c1cccnc1)c1ccc2nc(Cl)c(-c3ccccc3)c(Cl)c2c1 (stereo not shown) [Example 22]

>  <pIC50>
6.36

$$$$
>  <compound>
Cn1cncc1C(O)(c1ccc(Cl)cc1)c1ccc2nc(Cl)c(-c3ccccc3)c(Cl)c2c1 (single isomer, unassigned) [Example 119c]

>  <pIC50>
6.15

$$$$
>  <compound>
Cn1cncc1C(O)(c1ccc(Cl)cc1)c1cc2c(Cl)c(-c3ccccc3)c(Cl)nc2cc1F (stereo not shown) [Example 161]

>  <pIC50>
6.44

$$$$

// pIC50 lookup, key: Cc1ccc(C(O)(c2cccc(F)c2)c2ccc3nc(Cl)c(-c4ccccc4)c(Cl)c3c2)cn1 (stereo not shown) [Example 71]
6.16

Endpoint output: pIC50 of Cn1cncc1C(O)(c1cccnc1)c1cc(F)c2nc(Cl)c(-c3ccccc3)c(Cl)c2c1 (stereo not shown) [Example 154] . Value?
5.72

I have this compound here, Cc1ccc(C(O)(c2cccc(Cl)c2)c2ccc3nc(Cl)c(-c4ccccc4)c(Cl)c3c2)cn1 (stereo not shown) [Example 70] , and I need its recorded pIC50.
6.20

All values here come from patent US9309222B2.
